# method.notes: Kinetic solubility in water and Medisca Oral Mix (HPLC solubility, purity and pH of supernatant)
# Format: physicochemical
# experimental.conditions: Water, 24 hr, RT
# Protocol: The kinetic solubility was evaluated for nicotinate, phosphate, L-tartrate, and fumarate salts and/or co-crystals of sepiapterin in water and […] Oral Mix. X-ray powder diffraction (XRPD) was performed for the residual solids to identify form change/disproportionation. Solids were suspended into the media with target conc. of 7 mg/mL (calculated by freebase).
measured.endpoint: Observation

C[C@H](O)C(=O)C1=Nc2c(nc(N)[nH]c2=O)NC1 [Fumarate, sepiapterin]; Turbid
C[C@H](O)C(=O)C1=Nc2c(nc(N)[nH]c2=O)NC1 [Nicotinate, sepiapterin]; Turbid
C[C@H](O)C(=O)C1=Nc2c(nc(N)[nH]c2=O)NC1 [Phosphate, sepiapterin]; Turbid
C[C@H](O)C(=O)C1=Nc2c(nc(N)[nH]c2=O)NC1 [L-Tartrate, sepiapterin]; Turbid

All values here come from patent US12637465B2.
